// glycan array binding signal (z-score) lookup, one value per entry
# system name: Gal(b1-4)GlcNAc(b1-2)[Gal(b1-4)GlcNAc(b1-6)]Man(a1-6)[Gal(b1-4)GlcNAc(b1-2)Man(a1-3)]Man(b1-4)GlcNAc(b1-4)GlcNAc
# run description: glycan array binding signal (z-score within array); higher = stronger binding
# experimental setup: glycan notation: IUPAC condensed, linker removed
Shown is part of a subset that was picked to be rich in the strongest signals.
Lab note: write the figure by itself, no unit.

{"binder": "Mermaid1 (Stilbonema majum) (protein) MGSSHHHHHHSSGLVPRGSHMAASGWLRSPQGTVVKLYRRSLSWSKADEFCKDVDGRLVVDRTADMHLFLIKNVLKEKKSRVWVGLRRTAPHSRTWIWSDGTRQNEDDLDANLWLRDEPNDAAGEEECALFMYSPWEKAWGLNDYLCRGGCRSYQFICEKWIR", "glycan array binding signal (z-score)": -0.567}
{"binder": "Mincle (Bos taurus) (protein) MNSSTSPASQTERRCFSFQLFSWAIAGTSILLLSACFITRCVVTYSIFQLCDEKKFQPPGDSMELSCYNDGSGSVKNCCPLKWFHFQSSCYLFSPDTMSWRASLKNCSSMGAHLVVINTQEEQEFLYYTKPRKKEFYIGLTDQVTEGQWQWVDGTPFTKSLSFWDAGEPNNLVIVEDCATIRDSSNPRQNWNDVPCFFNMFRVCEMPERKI", "glycan array binding signal (z-score)": -0.55}

// switching to the query binder
Q. Output measured glycan array binding signal (z-score) for this item: his-Lectin-24A (Drosophila melanogaster) (protein) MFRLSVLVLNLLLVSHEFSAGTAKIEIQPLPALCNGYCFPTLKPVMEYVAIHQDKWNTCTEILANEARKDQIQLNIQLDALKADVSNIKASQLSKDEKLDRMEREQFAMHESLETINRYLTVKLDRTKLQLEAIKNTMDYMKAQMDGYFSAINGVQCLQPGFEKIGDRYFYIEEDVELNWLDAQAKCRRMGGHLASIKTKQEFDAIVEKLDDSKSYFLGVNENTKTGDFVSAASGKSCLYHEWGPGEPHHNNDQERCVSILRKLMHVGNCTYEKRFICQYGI
A. -0.553
